Entries and their one-hybrid fitness for binding NBS DNA values follow.
B1: Caulobacter ParB omega fusion; a variant is named by its letters at X, in order, B8GW30 (parent)
chain: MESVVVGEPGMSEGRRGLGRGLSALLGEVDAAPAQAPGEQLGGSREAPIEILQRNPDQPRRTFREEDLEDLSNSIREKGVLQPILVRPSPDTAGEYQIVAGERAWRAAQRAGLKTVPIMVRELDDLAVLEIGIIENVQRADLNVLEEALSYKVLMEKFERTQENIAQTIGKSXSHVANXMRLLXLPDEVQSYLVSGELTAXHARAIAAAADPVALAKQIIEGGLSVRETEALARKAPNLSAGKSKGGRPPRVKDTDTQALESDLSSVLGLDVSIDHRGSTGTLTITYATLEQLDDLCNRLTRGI

Variants of: B1
testDetails: one-hybrid fitness for binding NBS DNA (the Noc-binding site; scaled: cognate 1, non-cognate 0); higher = stronger binding
assayContext: with NBS DNA site
Whole data set: some 81,000 sequences, median “one-hybrid fitness for binding NBS DNA” near -0.1, cut for the highest 2% near 0.36. The sample holds the highest values, similar sequences and a random draw of the others, so the mix is not that of the screen.
endpoint: one-hybrid fitness for binding NBS DNA

>>> print(df.to_string())
    variantdescriptor  reported
 0               QMAD     ≤ 0.2
 1               RKSF     ≤ 0.2
 2               RKPT     0.236
 3               RVAG     ≤ 0.2
 4               QSTA     0.219
 5               RCNS     0.557
 6               QSCA     ≤ 0.2
 7               QRWA     0.432
 8               TYEH     ≤ 0.2
 9               TFKE     ≤ 0.2
10               QKAA     0.319
11               RVRR     0.626
12               ILDT     ≤ 0.2
13               RKLY     ≤ 0.2
14               QRCA     0.609
15               SYPN     ≤ 0.2
16               YKRY     ≤ 0.2
17               RAAS     0.368
18               RIAS     0.345
19               QKQN     ≤ 0.2
20               RVFR      0.34
21               RPAS     ≤ 0.2
22               RLAH     ≤ 0.2
23               QPQA     ≤ 0.2
24               QSWA     ≤ 0.2
25               QHCA     ≤ 0.2
26               RSND     ≤ 0.2
27               RVWR     0.248
28               QMAH     0.231
29               AKVR     ≤ 0.2
30               QSMA     ≤ 0.2
31               SMNN     ≤ 0.2
32               QMAS     0.389
33               RLNS     0.493
34               RKYT     0.643
35               RKLK     ≤ 0.2
36               RVAR     0.396
37               QGQR     ≤ 0.2
38               MTER     ≤ 0.2
39               GMVG     ≤ 0.2
40               QTSA     0.397
41               PFSA     ≤ 0.2
42               RHAS     0.433
43               QRTA       0.6
44               QHQD     ≤ 0.2
45               QCQA     0.372
46               QASA     ≤ 0.2
47               KMGK     ≤ 0.2
48               YYPG     ≤ 0.2
49               QCCA     0.326
50               RQKV     0.237
51               QRQA     0.611
52               RHAN     ≤ 0.2
53               DLGS     ≤ 0.2
54               RMNP     ≤ 0.2
55               AGTL     ≤ 0.2
56               QPQR     ≤ 0.2
57               RVQH     ≤ 0.2
58               SPSM     ≤ 0.2
59               RVYR     0.359
60               QTFA     0.301
61               AWRM     ≤ 0.2
62               RVQS     0.357
63               RAAH     ≤ 0.2
64               VCSD     ≤ 0.2
65               ADCG     ≤ 0.2
66               RAAD     ≤ 0.2
67               CWHL     ≤ 0.2
68               QDQR     ≤ 0.2
69               QCSA     0.302
70               QLQA     0.204
71               QHQR     0.523
72               RSDS     ≤ 0.2
73               FATT     ≤ 0.2
74               GYDR     ≤ 0.2
75               HRCR     ≤ 0.2
76               QCMA     0.303
77               RVAH     ≤ 0.2
78               MCAS     ≤ 0.2
79               QRMA     0.549
80               QTQA     0.432
81               MIYY     ≤ 0.2
82               RKDF     ≤ 0.2
83               QTAA      0.44
84               RKKV     0.277
85               VPHA     ≤ 0.2
86               RKST     0.639
87               ESQL     ≤ 0.2
88               QKQG     ≤ 0.2
89               QDQA     ≤ 0.2
90               NIMG     ≤ 0.2
